system: A549; assay: NCI tumour cell line growth inhibition, 48 h
Active and inactive are the calls of the source. Rule as the data show it: active = GI50 up to about 1.1 µM and inactive = higher.
Classes used: active, inactive

molecule	qualitative.label
CC(=O)C(N1CCCCC1)C(O)(C(F)(F)F)C(F)(F)F (stereo not drawn)	inactive
Cc1cc(-c2cc(C(C)(C)C)c(O)c(C(C)(C)C)c2)c(C)cc1-c1cc(C(C)(C)C)c(O)c(C(C)(C)C)c1	inactive
CCCOC(=O)c1cc(O)c(O)c(O)c1 [PROPYL GALLATE]	inactive
CC1C[C@]2(C)C(=O)Nc3ccccc3[C@@H]2Nc2ccccc21 (stereo partly drawn)	inactive
Cc1ccc(-c2n[nH]c(=O)n2N2C(=O)C=CC2=O)cc1	inactive
CCC(C)c1c(Cl)nc(Cl)nc1Cl (stereo not drawn)	inactive
NC(=O)C1CCN(Cc2c(Cl)c(Cl)c(CN3CCC(C(N)=O)CC3)c(Cl)c2Cl)CC1	inactive
CCOC(=O)CCC(NC(=O)Cc1ccc(Oc2nc3ccccc3nc2-c2cccs2)cc1)C(=O)OCC (stereo not drawn)	inactive
NC(N)=NCCC(O)(P(=O)(O)O)P(=O)(O)O	inactive
N/N=C1\C(=O)N(C2CCCCCC2)C(=O)C1C(=O)NC1CCCCCC1 (stereo not drawn)	inactive
Nc1c(S(=O)(=O)O)cc(Nc2cccc(S(=O)(=O)/C=C/S(=O)(=O)O)c2)c2c1C(=O)c1ccccc1C2=O	inactive
Cc1c(N2C(=O)CS(=O)(=O)C2c2cccc(Oc3ccccc3)c2)c(=O)n(-c2ccccc2)n1C (stereo not drawn)	inactive
COC(=O)[C@@H]1c2[nH]c3ccccc3c2C[C@@H]2c3ccccc3NC(=O)[C@@H]21	inactive
CCCN(CCC)c1c([N+](=O)[O-])cc(S(N)(=O)=O)cc1[N+](=O)[O-]	inactive
Cc1c(-c2coc(-c3ccc(Cl)cc3)n2)c(=O)n(-c2ccccc2)n1C	inactive
C/C(=N\O)c1ccc2ccc3ccccc3c2c1	inactive
CO/N=C1/c2sccc2[C@H](NC(=O)CNC(=O)OC(C)(C)C)[C@@H]1O	inactive
C#CCn1c(=O)c(Cl)cn(/C(=C/C(=O)OCC)C(=O)OCC)c1=O	inactive
CCOC(=O)C1=C(C)N(c2ccc(C)cc2)C2(O)C=CC(O)=C3C(=O)c4ccccc4C(=O)C312 (stereo not drawn)	inactive
Cc1ccc(Sc2ccccc2N)cc1	inactive
CCCCC/C=C1\CCC(CN2CCOCC2)C1=O (stereo not drawn)	inactive
Nc1ccc2nc3c(nc2c1)C(=O)c1ccccc1-3	inactive
CC(O)C(NC(=O)c1ccccc1)C(=O)N(Cc1ccccc1)Cc1ccccc1 (stereo not drawn)	inactive
CN(C)C(=S)/N=c1\ssc(=S)n1Cc1ccccn1	inactive
C/C(CN1C(=O)c2ccccc2C1=O)=N\NS(=O)(=O)c1ccc(C)cc1	inactive
COc1cc(-c2cc(=O)c3c(OC)c(OC)c(OC)cc3o2)c(OC)c(OC)c1OC	inactive
CC(=O)OCC1=C(COC(C)=O)C(=O)c2c(O)ccc(O)c2C1=O	inactive
CC(C)C[C@H](NC(=O)[C@H](Cc1cccc2ccccc12)NC(=O)N1CCOCC1)B(O)O	active
C/N=N/N(C)C(=O)NC	inactive
N#C/C(=C1C=C(Br)/C(=N\O)C=C\1Cl)c1cccc2ccccc12	inactive
COC(=O)C1(C(=O)OC)Cc2ccc(OC)cc2C2=C1C(=O)c1ccccc1C2=O	inactive
O=C(CC1(O)C(=O)Nc2ccccc21)c1cccc(O)c1 (stereo not drawn)	inactive
CN(C)CS/C(N)=N\C(O)C(Cl)(Cl)Cl (stereo not drawn)	inactive
CC(=O)OC12C(C)=C(C)C(=O)N1c1ccccc1N2C(C)=O (stereo not drawn)	inactive
Clc1ccc(C2Nc3ccccc3C3=NCCN32)cc1 (stereo not drawn)	inactive
Cc1c(Cl)cccc1NC(=O)C(=O)c1c(O)c2ccc(O)cc2oc1=O	inactive
CCOC(=O)C(C)(c1cn(C)c2ccccc12)c1cn(C)c2ccccc12	inactive
O=C(CCCNC(=O)OCc1ccccc1)OCc1ccc2c(c1)C(=O)c1ccccc1C2=O	inactive
CC(=O)OCSc1ncnc2c1ncn2CN1CCOCC1	inactive
CC(C)CCCC(C)[C@H]1CC[C@H]2[C@@H]3CC[C@H]4C[C@@H](CCC=C(c5cc(Cl)c(O)c(C(=O)OC(C)(C)C)c5)c5cc(Cl)c(O)c(C(=O)OC(C)(C)C)c5)CC[C@]4(C)[C@H]3CC[C@]12C (stereo partly drawn)	inactive
O=c1cnn(CCOCP(=O)(O)O)c(=O)[nH]1	inactive
CCC12C=CCN3CCC4(C(=C(C(=O)OC)[C@@H]1O)Nc1ccccc14)C32 (stereo partly drawn)	inactive
CC1(C)CC2=NOS3=C2C(=NO3)C1c1ccccn1 (stereo not drawn)	inactive

Cited source: ChEMBL document CHEMBL1201862
